- Tested on: 313798-341-R-J2-PDC spheroids, viability
- assay_notes: Anticancer human tumor 313798-341-R-J2-PDC patient-derived cervical squamous cell carcinoma cell line growth inhibition [PI3K]
- condition_notes: curve of first compound; second compound 0.316 µM; spheroids with HUVEC and MSC
IC50 values, listed per item

[[record]]
compound = "CNC(=O)c1ccc(N2C(=S)N(c3ccc(C#N)c(C(F)(F)F)c3)C(=O)C2(C)C)cc1F + CC(Nc1ncnc2nc[nH]c12)c1cc2cccc(Cl)c2c(=O)n1-c1ccccc1"
measurement_name = "IC50"
test_value = "> 10 µM"


Q: Sample Cn1ncnc1[C@H]1c2n[nH]c(=O)c3cc(F)cc(c23)N[C@@H]1c1ccc(F)cc1 + Cc1nc(NC(=O)N2CCCC2C(N)=O)sc1-c1ccnc(C(C)(C)C(F)(F)F)c1 — what was its IC50?
Ans: > 0.1 µM

Q: Next record, please: Cn1ncc(Cl)c1-c1cc(C(=O)NC(CN)Cc2cccc(F)c2)sc1Cl (stereo unspecified) + CC(Nc1ncnc2nc[nH]c12)c1cc2cccc(Cl)c2c(=O)n1-c1ccccc1
Ans: 1.1 µM

Q: Next record, please: CCN1CCN(Cc2ccc(Nc3ncc(F)c(-c4cc(F)c5nc(C)n(C(C)C)c5c4)n3)nc2)CC1 + COc1c(OCCCN2CCOCC2)ccc2c3n(c(=NC(=O)c4cnc(N)nc4)nc12)CCN3
Ans: < 0.00316 µM

Q: Next record, please: CC(Cn1ccc(-c2ccc(C#N)c(Cl)c2)n1)NC(=O)c1cc(C(C)O)[nH]n1 (stereo unspecified) + CC(Nc1ccc2c(c1)OCCn1cc(N3C(=O)OCC3C(F)F)nc1-2)C(N)=O
Ans: > 10 µM

Q: Next record, please: Cn1cnc2c(F)c(Nc3ccc(Br)cc3Cl)c(C(=O)NOCCO)cc21 + Cc1nc(NC(=O)N2CCCC2C(N)=O)sc1-c1ccnc(C(C)(C)C(F)(F)F)c1
Ans: > 3 µM

* * *

viability, T/C values, listed per item
- Tested on: 313798-341-R-J2-PDC spheroids, viability
- assay_notes: Anticancer human tumor 313798-341-R-J2-PDC cell line growth inhibition [PI3K];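 note: spheroids exposed to compounds for seven days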;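 for viability, T/C: 100% = DMSO vehicle control viability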
- condition_notes: second compound 0.1 µM; first compound 3.16 µM; stronger effect = lower value; spheroids with HUVEC and MSC
Numeric answer only, unit % assumed.

Examples with their reported viability, T/C follow.
[[record]]
compound = "CCCS(=O)(=O)Nc1ccc(F)c(C(=O)c2c[nH]c3ncc(-c4ccc(Cl)cc4)cc23)c1F + Cc1nc(NC(=O)N2CCCC2C(N)=O)sc1-c1ccnc(C(C)(C)C(F)(F)F)c1"
test_value = 90.7

[[record]]
compound = "Cn1ncc(Cl)c1-c1cc(C(=O)NC(CN)Cc2cccc(F)c2)sc1Cl (stereo unspecified) + CC(Nc1ncnc2nc[nH]c12)c1cc2cccc(Cl)c2c(=O)n1-c1ccccc1"
test_value = 32.2


Q: Sample CC(C)NCC(C(=O)N1CCN(c2ncnc3c2C(C)CC3O)CC1)c1ccc(Cl)cc1 (stereo unspecified) + CC(Nc1ccc2c(c1)OCCn1cc(N3C(=O)OCC3C(F)F)nc1-2)C(N)=O — what was its viability, T/C?
Ans: 39.5

Q: Next record, please: Cn1nccc1Nc1nccc(-c2ccn(C(CO)c3ccc(Cl)c(F)c3)c(=O)c2)n1 (stereo unspecified) + COc1c(OCCCN2CCOCC2)ccc2c3n(c(=NC(=O)c4cnc(N)nc4)nc12)CCN3
Ans: 34.7

Q: Next record, please: C#Cc1c(F)ccc2cc(O)cc(-c3ncc4c(N5CC6CCC(C5)N6)nc(OCC56CCCN5CC(F)C6)nc4c3F)c12 (stereo unspecified) + COc1c(OCCCN2CCOCC2)ccc2c3n(c(=NC(=O)c4cnc(N)nc4)nc12)CCN3
Ans: 39.5

Q: Next record, please: Cn1nccc1Nc1nccc(-c2ccn(C(CO)c3ccc(Cl)c(F)c3)c(=O)c2)n1 (stereo unspecified) + CC(Nc1ncnc2nc[nH]c12)c1cc2cccc(Cl)c2c(=O)n1-c1ccccc1
Ans: 105

* * *

- System: 313798-341-R-J2-PDC spheroids, viability
- assay_notes: Anticancer human tumor 313798-341-R-J2-PDC cell line growth inhibition [PI3K];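 note: spheroids exposed to compounds for seven days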;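 for viability, T/C: 100% = DMSO vehicle control viability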
- condition_notes: compound 0.1 µM; stronger effect = lower value; spheroids with HUVEC and MSC
measurement_name: viability, T/C

Examples with their reported viability, T/C follow.
[[record]]
molecule = "Cn1ncc(Cl)c1-c1cc(C(=O)NC(CN)Cc2cccc(F)c2)sc1Cl (stereo unspecified)"
measurement_name = "viability, T/C"
test_value = "97.5% [middle of 4 runs]"

[[record]]
molecule = "Cc1nc(NC(=O)N2CCCC2C(N)=O)sc1-c1ccnc(C(C)(C)C(F)(F)F)c1 (stereo unspecified)"
measurement_name = "viability, T/C"
test_value = "97.5% [middle of 8 runs]"

[[record]]
molecule = "COc1c(OCCCN2CCOCC2)ccc2c3n(c(=NC(=O)c4cnc(N)nc4)nc12)CCN3"
measurement_name = "viability, T/C"
test_value = "42.1% [middle of 7 runs]"


Q: Recorded viability, T/C for `CCN1CCN(Cc2ccc(Nc3ncc(F)c(-c4cc(F)c5nc(C)n(C(C)C)c5c4)n3)nc2)CC1` with 313798-341-R-J2-PDC spheroids, viability, please?
Ans: 102% [middle of 4 runs]

Q: Next record, please: `CC1(C)CCC(CN2CCN(c3ccc(C(=O)NS(=O)(=O)c4ccc(NCC5CCOCC5)c([N+](=O)[O-])c4)c(Oc4cnc5[nH]ccc5c4)c3)CC2)=C(c2ccc(Cl)cc2)C1`
Ans: 97.8% [middle of 4 runs]

Q: Next record, please: CC1(C)CCC(Nc2ncc(C(F)(F)F)c(-c3c[nH]c4c(P(C)(C)=O)c(C#N)ccc34)n2)CN1 (stereo unspecified)
Ans: 46.7% [middle of 4 runs]

* * *

- System: 313798-341-R-J2-PDC spheroids, viability
- assay_notes: Anticancer human tumor 313798-341-R-J2-PDC cell line growth inhibition [PI3K];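 note: spheroids exposed to compounds for seven days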;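 for viability, T/C: 100% = DMSO vehicle control viability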
- condition_notes: second compound 1 µM; first compound 0.316 µM; stronger effect = lower value; spheroids with HUVEC and MSC
Response field class: enum, chosen by comparing viability, T/C against Low: < 10%; Mid: ≥ 10% and < 60%; High: ≥ 60%

Would you please look over these solved cases?
[[record]]
compound = "C[C@@H](NC(=O)c1ncnc(N)c1Cl)c1ncc(C(=O)Nc2cc(C(F)(F)F)c(Cl)cn2)s1 + COc1c(OCCCN2CCOCC2)ccc2c3n(c(=NC(=O)c4cnc(N)nc4)nc12)CCN3"
class_label = "Mid"

[[record]]
compound = "C[C@@H](NC(=O)c1ncnc(N)c1Cl)c1ncc(C(=O)Nc2cc(C(F)(F)F)c(Cl)cn2)s1 + Cc1nc(NC(=O)N2CCCC2C(N)=O)sc1-c1ccnc(C(C)(C)C(F)(F)F)c1"
class_label = "High"

[[record]]
compound = "CCN1CCN(Cc2ccc(Nc3ncc(F)c(-c4cc(F)c5nc(C)n(C(C)C)c5c4)n3)nc2)CC1 + COc1c(OCCCN2CCOCC2)ccc2c3n(c(=NC(=O)c4cnc(N)nc4)nc12)CCN3"
class_label = "Mid"

[[record]]
compound = "CC1(C)CCC(Nc2ncc(C(F)(F)F)c(-c3c[nH]c4c(P(C)(C)=O)c(C#N)ccc34)n2)CN1 (stereo unspecified) + CC(Nc1ccc2c(c1)OCCn1cc(N3C(=O)OCC3C(F)F)nc1-2)C(N)=O"
class_label = "Mid"

[[record]]
compound = "Cn1nccc1Nc1nccc(-c2ccn(C(CO)c3ccc(Cl)c(F)c3)c(=O)c2)n1 (stereo unspecified) + Cc1nc(NC(=O)N2CCCC2C(N)=O)sc1-c1ccnc(C(C)(C)C(F)(F)F)c1"
class_label = "High"

[[record]]
compound = "CCCS(=O)(=O)Nc1ccc(F)c(C(=O)c2c[nH]c3ncc(-c4ccc(Cl)cc4)cc23)c1F + COc1c(OCCCN2CCOCC2)ccc2c3n(c(=NC(=O)c4cnc(N)nc4)nc12)CCN3"
class_label = "Mid"

[[record]]
compound = "Cn1nccc1Nc1nccc(-c2ccn(C(CO)c3ccc(Cl)c(F)c3)c(=O)c2)n1 (stereo unspecified) + COc1c(OCCCN2CCOCC2)ccc2c3n(c(=NC(=O)c4cnc(N)nc4)nc12)CCN3"
class_label = "Low"

[[record]]
compound = "CC(Cn1ccc(-c2ccc(C#N)c(Cl)c2)n1)NC(=O)c1cc(C(C)O)[nH]n1 (stereo unspecified) + CC(Nc1ncnc2nc[nH]c12)c1cc2cccc(Cl)c2c(=O)n1-c1ccccc1"
class_label = "High"


Q: Assign a category based on measured viability, T/C for CC1(C)CCC(Nc2ncc(C(F)(F)F)c(-c3c[nH]c4c(P(C)(C)=O)c(C#N)ccc34)n2)CN1 (stereo unspecified) + COc1c(OCCCN2CCOCC2)ccc2c3n(c(=NC(=O)c4cnc(N)nc4)nc12)CCN3 and give only the class name.
Ans: Low

* * *

viability, T/C values, listed per item
- System: 313798-341-R-J2-PDC spheroids, viability
- assay_notes: Anticancer human tumor 313798-341-R-J2-PDC cell line growth inhibition [PI3K];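 note: spheroids exposed to compounds for seven days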;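 for viability, T/C: 100% = DMSO vehicle control viability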
- condition_notes: second compound 0.00316 µM; first compound 10 µM; stronger effect = lower value; spheroids with HUVEC and MSC
Numeric answer only, unit % assumed.

Examples with their reported viability, T/C follow.
[[record]]
compound = "CC1(C)CCC(CN2CCN(c3ccc(C(=O)NS(=O)(=O)c4ccc(NCC5CCOCC5)c([N+](=O)[O-])c4)c(Oc4cnc5[nH]ccc5c4)c3)CC2)=C(c2ccc(Cl)cc2)C1 + CC(Nc1ccc2c(c1)OCCn1cc(N3C(=O)OCC3C(F)F)nc1-2)C(N)=O"
output_unit = "%"
test_value = 16.9

[[record]]
compound = "CC(C)NCC(C(=O)N1CCN(c2ncnc3c2C(C)CC3O)CC1)c1ccc(Cl)cc1 (stereo unspecified) + CC(Nc1ccc2c(c1)OCCn1cc(N3C(=O)OCC3C(F)F)nc1-2)C(N)=O"
output_unit = "%"
test_value = 25.9

[[record]]
compound = "C#Cc1c(F)ccc2cc(O)cc(-c3ncc4c(N5CC6CCC(C5)N6)nc(OCC56CCCN5CC(F)C6)nc4c3F)c12 (stereo unspecified) + COc1c(OCCCN2CCOCC2)ccc2c3n(c(=NC(=O)c4cnc(N)nc4)nc12)CCN3"
output_unit = "%"
test_value = 100


Q: Sample CCCS(=O)(=O)Nc1ccc(F)c(C(=O)c2c[nH]c3ncc(-c4ccc(Cl)cc4)cc23)c1F + CC(Nc1ccc2c(c1)OCCn1cc(N3C(=O)OCC3C(F)F)nc1-2)C(N)=O — what was its viability, T/C?
Ans: 11.9

Q: Next record, please: C[C@@H](NC(=O)c1ncnc(N)c1Cl)c1ncc(C(=O)Nc2cc(C(F)(F)F)c(Cl)cn2)s1 + CC(Nc1ccc2c(c1)OCCn1cc(N3C(=O)OCC3C(F)F)nc1-2)C(N)=O
Ans: 6.06

Q: Next record, please: CNC(=O)c1ccc(N2C(=S)N(c3ccc(C#N)c(C(F)(F)F)c3)C(=O)C2(C)C)cc1F + CC(Nc1ccc2c(c1)OCCn1cc(N3C(=O)OCC3C(F)F)nc1-2)C(N)=O
Ans: 88.2

Q: Next record, please: Cn1ncc(Cl)c1-c1cc(C(=O)NC(CN)Cc2cccc(F)c2)sc1Cl (stereo unspecified) + CC(Nc1ccc2c(c1)OCCn1cc(N3C(=O)OCC3C(F)F)nc1-2)C(N)=O
Ans: 38.6

Q: Next record, please: Cn1nccc1Nc1nccc(-c2ccn(C(CO)c3ccc(Cl)c(F)c3)c(=O)c2)n1 (stereo unspecified) + COc1c(OCCCN2CCOCC2)ccc2c3n(c(=NC(=O)c4cnc(N)nc4)nc12)CCN3
Ans: 90.1

Q: Next record, please: CC1(C)CCC(Nc2ncc(C(F)(F)F)c(-c3c[nH]c4c(P(C)(C)=O)c(C#N)ccc34)n2)CN1 (stereo unspecified) + COc1c(OCCCN2CCOCC2)ccc2c3n(c(=NC(=O)c4cnc(N)nc4)nc12)CCN3
Ans: 33.7

Q: Next record, please: CNC(=O)c1ccc(N2C(=S)N(c3ccc(C#N)c(C(F)(F)F)c3)C(=O)C2(C)C)cc1F + COc1c(OCCCN2CCOCC2)ccc2c3n(c(=NC(=O)c4cnc(N)nc4)nc12)CCN3
Ans: 87.1

Q: Next record, please: CC1(C)CCC(Nc2ncc(C(F)(F)F)c(-c3c[nH]c4c(P(C)(C)=O)c(C#N)ccc34)n2)CN1 (stereo unspecified) + CC(Nc1ccc2c(c1)OCCn1cc(N3C(=O)OCC3C(F)F)nc1-2)C(N)=O
Ans: 29.3
